tested on: RIVA; test: growth inhibition by drug alone (1 - RLU/untreated control) (fraction); higher = stronger inhibition; conditions: 10 nM; time (day): 6; 177Lu-lilotomab satetraxetan 0 ug/ml
Where a name gives a salt, the structure may show the parent alone.
Rule: growth inhibition by drug alone of -0.2 or more gives rule met; anything lower gives rule not met.

A selection of reference data follows.
compound | labelValue
C#Cc1cccc(Nc2ncnc3cc(OCCOC)c(OCCOC)cc23)c1 [Erlotinib HCl] | rule not met
Nc1ccc(-c2ccc3ncc4ccc(=O)n(-c5cccc(C(F)(F)F)c5)c4c3c2)cn1 | rule met
CCCC(CCC)C(=O)O [Valproic acid sodium salt (Sodium valproate)] | rule not met
CCc1ccc(CCOc2ccc(CC3SC(=O)NC3=O)cc2)nc1 (centres undefined) | rule met
N#CC[C@H](C1CCCC1)n1cc(-c2ncnc3[nH]ccc23)cn1 | rule not met

Request: Confirm if growth inhibition by drug alone reported for the compound C[C@@H](O[C@H]1OCCN(Cc2n[nH]c(=O)[nH]2)[C@H]1c1ccc(F)cc1)c1cc(C(F)(F)F)cc(C(F)(F)F)c1 [Aprepitant (MK-0869)] is -0.2 or above.
Result: rule not met

Request: Confirm if growth inhibition by drug alone reported for the compound CCc1cc(-c2n[nH]c(C)c2-c2ccc3c(c2)OCCO3)c(O)cc1O is -0.2 or above.
Result: rule not met

Request: Confirm if growth inhibition by drug alone reported for the compound COc1ccc2c3n(c(=NC(=O)c4cccnc4)nc2c1OC)CCN3 is -0.2 or above.
Result: rule not met

Request: Confirm if growth inhibition by drug alone reported for the compound CO[C@H]1C[C@@H]2CC[C@@H](C)[C@@](O)(O2)C(=O)C(=O)N2CCCC[C@H]2C(=O)O[C@H]([C@H](C)C[C@@H]2CC[C@@H](OC(=O)C(C)(CO)CO)[C@H](OC)C2)CC(=O)[C@H](C)/C=C(\C)[C@@H](O)[C@@H](OC)C(=O)[C@H](C)C[C@H](C)/C=C/C=C/C=C/1C is -0.2 or above.
Result: rule met

Request: Confirm if growth inhibition by drug alone reported for the compound Cc1cnc(NC(=O)Nc2cc(Br)c(C)cc2OC[C@@H]2CNCCO2)cn1 is -0.2 or above.
Result: rule met

Request: Confirm if growth inhibition by drug alone reported for the compound CC(C)C[C@H](NC(=O)CNC(=O)c1cc(Cl)ccc1Cl)B1OC(=O)C(CC(=O)O)(CC(=O)O)O1 is -0.2 or above.
Result: rule not met

Request: Confirm if growth inhibition by drug alone reported for the compound C[S+]([O-])c1ccc(-c2nc(-c3ccc(F)cc3)c(-c3ccncc3)[nH]2)cc1 (centres undefined) is -0.2 or above.
Result: rule not met

Request: Confirm if growth inhibition by drug alone reported for the compound O=C(O)Cc1cccc(OCCCN(Cc2cccc(C(F)(F)F)c2Cl)CC(c2ccccc2)c2ccccc2)c1 is -0.2 or above.
Result: rule met

Request: Confirm if growth inhibition by drug alone reported for the compound Cn1cc(C2=C(c3ccc(Cl)cc3Cl)C(=O)NC2=O)c2ccccc21 is -0.2 or above.
Result: rule met

Request: Confirm if growth inhibition by drug alone reported for the compound OCCn1cc(-c2ccc3c(c2)CC/C3=N\O)c(-c2ccncc2)n1 is -0.2 or above.
Result: rule not met

Request: Confirm if growth inhibition by drug alone reported for the compound Cc1ccc(C(=O)Nc2ccc(CN3CCN(C)CC3)c(C(F)(F)F)c2)cc1C#Cc1cnc2cccnn12 is -0.2 or above.
Result: rule not met

Request: Confirm if growth inhibition by drug alone reported for the compound c1ccc2c(CCNc3ccc(Nc4ccncc4)cc3)c[nH]c2c1 is -0.2 or above.
Result: rule not met

Request: Confirm if growth inhibition by drug alone reported for the compound O=C(NC1CCNCC1)c1n[nH]cc1NC(=O)c1c(Cl)cccc1Cl is -0.2 or above.
Result: rule met

Request: Confirm if growth inhibition by drug alone reported for the compound CNC(=O)c1ccc(C)c(-n2c(C)cc(OCc3ccc(F)cc3F)c(Br)c2=O)c1 is -0.2 or above.
Result: rule not met

Request: Confirm if growth inhibition by drug alone reported for the compound O=C(O)C1(C(=O)O)CCC1.[NH2-].[NH2-].[Pt+2] is -0.2 or above.
Result: rule not met

Request: Confirm if growth inhibition by drug alone reported for the compound COc1ccc(C2CC(c3ccccc3)=NN2c2ccc(S(N)(=O)=O)cc2)cc1 (centres undefined) is -0.2 or above.
Result: rule not met

Request: Confirm if growth inhibition by drug alone reported for the compound CC(C)(C)c1cnc(CSc2cnc(NC(=O)C3CCNCC3)s2)o1 is -0.2 or above.
Result: rule not met

Request: Confirm if growth inhibition by drug alone reported for the compound O=C(Nc1ncc([N+](=O)[O-])s1)c1ccc([N+](=O)[O-])c(Cl)c1 is -0.2 or above.
Result: rule met

Request: Confirm if growth inhibition by drug alone reported for the compound CCOc1cc2ncc(C#N)c(Nc3ccc(OCc4ccccn4)c(Cl)c3)c2cc1NC(=O)/C=C/CN(C)C is -0.2 or above.
Result: rule not met

Request: Confirm if growth inhibition by drug alone reported for the compound COc1cccc2c1C(=O)c1c(O)c3c(c(O)c1C2=O)C[C@@](O)(C(=O)CO)C[C@@H]3O[C@H]1C[C@H](N)[C@H](O)[C@H](C)O1 is -0.2 or above.
Result: rule met

Request: Confirm if growth inhibition by drug alone reported for the compound Oc1nc(-c2ccc(C(F)(F)F)cc2)nc2c1CSCC2 is -0.2 or above.
Result: rule not met

Request: Confirm if growth inhibition by drug alone reported for the compound Fc1cc(-c2cccc3ncc(-c4cnn(C5CCNCC5)c4)nc23)cc(F)c1CN1CCOCC1 is -0.2 or above.
Result: rule not met

Request: Confirm if growth inhibition by drug alone reported for the compound O=C1C(Cl)=C(NCCN2CCOCC2)C(=O)c2ncccc21 is -0.2 or above.
Result: rule not met
